Where these numbers come from: patent US20230357447A1

# Experimental Target: Anti-CD28 scFv (VH-linker 1-VL) (biotinylated for capture on neutravidin plates)
# Sequence (scFv, as listed by the source): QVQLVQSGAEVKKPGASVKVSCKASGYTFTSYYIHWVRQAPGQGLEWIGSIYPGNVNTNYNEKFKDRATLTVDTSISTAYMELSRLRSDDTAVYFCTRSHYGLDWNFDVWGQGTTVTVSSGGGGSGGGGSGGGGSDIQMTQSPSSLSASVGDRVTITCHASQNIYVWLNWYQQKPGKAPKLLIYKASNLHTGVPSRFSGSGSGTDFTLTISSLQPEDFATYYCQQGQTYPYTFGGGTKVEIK
# Test Description: phage ELISA, scFv captured on plate, competitor soluble CD28;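 note: crude clonal phage supernatants added to wells pre-incubated with soluble CD28 or with blocking buffer only as control, bound phage read out with HRP-linked anti-M13 antibody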
Quantity Kind: Phage binding ELISA CD28 scFv signal in presence of CD28
// keep it numeric: no unit symbol after the value

## Input Return the recorded Phage binding ELISA CD28 scFv signal in presence of CD28 value; entry: MDWCPRDLWDQCYA [Phage-122]
## Output 0.201

## Input Give the measured Phage binding ELISA CD28 scFv signal in presence of CD28 for MDWCPSYLWHECFA [Phage-134]
## Output 0.198

## Input Hello, please tell me recorded Phage binding ELISA CD28 scFv signal in presence of CD28 for this one: MDWCPIHLWNECFA [Phage-123]
## Output 0.203
